tested on: MS2 coat protein; assay: apparent KD of MS2 coat protein; higher = weaker reporter binding; settings: Eterna round: R107; input ligand: theophylline 20 uM
Listing of entries alongside the reported apparent KD of MS2 coat protein.
Report the value in nM with no unit label.

>  <sequenceContent>
CCUGACAUGAGGAUCACCCAUGUGUGAGCACGAGGACCGGUACGGCCGCCACUCGCGUUGCCGGCCGGACUAUCUGGCGAAGUCA [theeternabot_sameState_MS2_Trp_A_10]

>  <apparent KD of MS2 coat protein [nM]>
39.6

$$$$
>  <sequenceContent>
GUCCACAGCCGAAGGAGCGCUAGAAGAUGACAUGAGGAUCACCCAUGUGUGUGAUGUGGCUAGCAGGUAGGUCGCGGAGUGGAUU [Exclusion - Arginine B (Freestyle 14)]

>  <apparent KD of MS2 coat protein [nM]>
30.3

$$$$
>  <sequenceContent>
UAUAUUGUGAUGGAUACCAGCAGAGAAAACGUUUAUCCUAACAUGAGGAUCACCCAUGUAUGCCCUUGGCAGCUGUUGUGAUAUA [8.N]

>  <apparent KD of MS2 coat protein [nM]>
73.9

$$$$
>  <sequenceContent>
GGGCCCGGGCGCGAGCCCGGGCCCAUUGAUACCAGUGAUAUAUAACGCCCUUGGCAGCGAAUCCUAACAUGAGGAUCACCCAUGU [5.G]

>  <apparent KD of MS2 coat protein [nM]>
61.5

$$$$
>  <sequenceContent>
UCGGGAACAUGAGGAUCACCCAUGUCAGAAGGAGCGCUGAGAGAAGCAGGUAGGUCGCUGACGUAGGAGCUCUCUUCCUAUACGC [Exclusion - Arginine A]

>  <apparent KD of MS2 coat protein [nM]>
40.1

$$$$

Summary for this sequence, AUGUAGAACCGAAGGAGCGCGAUGACAUGAGGAUCACCCAUGUAUUUGUGGUGGCUUCGAUCGCAGGUAGGUCGCGGAAGUAGUA [#04 Exclusion - Arginine B] : apparent KD of MS2 coat protein is 162

Noted for ACACAUGAGGAUCACCCAUGUGCCCAUGAAGGAGCGUGGGAAACCACAGGUAGGUCGCAUGACAUGAGGAUCACCCAUGUUUAUU [Astarte] : its apparent KD of MS2 coat protein reads 44.9

Noted for CUGUUUACAUGAGCCCGUCAUAUAUACGAUACCAGUUAAAGAUGAAACCCUUGGCAGCGUAGGACAUGAGGAUCACCCAUGUGCC [theeternabot_exclusion_MS2_Theo_A_17] : its apparent KD of MS2 coat protein reads 21.1
